The reported measurements were obtained from patent US9045415B2.

MEASURED_QUANTITY: melting point

// lookup melting point for O=C(CC1(O)C(=O)Nc2c(Cl)ccc(Cl)c21)c1ccccc1 (stereo not drawn) [YK-4-285]
198 to 200 °C

Next molecule: Cc1ccc(C(=O)CC2(O)C(=O)Nc3c(Cl)ccc(Cl)c32)cc1 (stereo not drawn) [YK-4-280]
189 to 192 °C

Next molecule: O=C(CC1(O)C(=O)N(Cc2ccccc2)c2c(Cl)ccc(Cl)c21)c1ccc(Cl)cc1 (stereo not drawn) [YK-4-276]
154 to 156 °C

Next molecule: O=C(CC1(O)C(=O)Nc2c(Cl)ccc(Cl)c21)c1ccc(O)cc1 (stereo not drawn) [YK-4-289]
240 to 242 °C

Next molecule: Nc1ccc(C(=O)CC2(O)C(=O)Nc3c(Cl)ccc(Cl)c32)cc1 (stereo not drawn) [YK-4-284]
240 to 243 °C

Next molecule: O=C(CC1(O)C(=O)Nc2c(Cl)ccc(Cl)c21)c1ccc(Cl)cc1 (stereo not drawn) [NSC635437]
194 to 196 °C
